The measured values listed here are drawn from PubChem BioAssay AID1963961.

- System: K98450-129-R-PDC multicell spheroids, viability;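 further: spheroids exposed to agents for seven days before read-out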
- ASSAY_COMMENT: Anticancer human tumor K98450-129-R-PDC patient-derived colon adenocarcinoma cell line growth inhibition [PI3K]
- RUN_PARAMETERS: second compound 0.1 µM; first compound 0.00949 µM; stronger effect = lower value
- Excerpt: Combinatorial screen of targeted agents with the PI3K inhibitors inavolisib, alpelisib, duvelisib, and copanlisib in multi-cell type tumor spheroids A high-throughput screen of multi-cell type tumor spheroids was designed to identify active combinations of targeted small molecules and PI3K pathway inhibitors. […] Compounds. […] If the clinical Cmax for an agent had not been determined, the highest concentration tested was 10 microM. […]
Known viability, T/C of a selection of compounds
RESULT_TYPE: viability, T/C

* Cn1cnc2c(F)c(Nc3ccc(Br)cc3Cl)c(C(=O)NOCCO)cc21 + COc1c(OCCCN2CCOCC2)ccc2c3n(c(=NC(=O)c4cnc(N)nc4)nc12)CCN3 | 87.4%
* Cn1cnc2c(F)c(Nc3ccc(Br)cc3Cl)c(C(=O)NOCCO)cc21 + CC(Nc1ccc2c(c1)OCCn1cc(N3C(=O)OCC3C(F)F)nc1-2)C(N)=O | 89.5%
* Cn1cnc2c(F)c(Nc3ccc(Br)cc3Cl)c(C(=O)NOCCO)cc21 + Cc1nc(NC(=O)N2CCCC2C(N)=O)sc1-c1ccnc(C(C)(C)C(F)(F)F)c1 | 107%
* Cn1cnc2c(F)c(Nc3ccc(Br)cc3Cl)c(C(=O)NOCCO)cc21 + CC(Nc1ncnc2nc[nH]c12)c1cc2cccc(Cl)c2c(=O)n1-c1ccccc1 | 99.5%
